assay: antimalarial activity against Dd2 strain (AID 2302);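 note: 0% = DMSO untreated growth and 100% = chloroquine plus artemisinin killed control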; conditions: P. falciparum Dd2 in RBCs, LDH growth readout, 72 h; at 2 µM; stronger effect = higher value
QUANTITY MEASURED: growth inhibition (%)
Only the number, expressed in %, is required.

Ask: Entry under review: Oc1cccc(CCNCCCCCCNCCc2ccc(Cl)cc2)c1 . Reported growth inhibition?
Result: -3

Ask: Try this compound next: Cc1ccc(C(=O)Nc2ccc(C)c(OC3CCN(CCC(C)C)C3)c2)cc1 (stereo not given)
Result: 53

Ask: Try this compound next: COc1ccc(-c2cnc(N)c(-c3ccc(O)c(OC)c3)c2)cn1
Result: 98

Ask: Try this compound next: CC(CN1CCN(C)CC1)C(=O)Nc1cccc(-c2ccc(-c3nc4ccccc4[nH]3)s2)c1 (stereo not given)
Result: 59

Ask: Try this compound next: O=C(COc1ccccc1Cc1ccccc1)Nc1cc(Cl)ccc1-n1cncn1
Result: 93

====

biological target: L-lactate dehydrogenase (Plasmodium falciparum (isolate CDC / Honduras)) (UniProt Q27743); test: PfLDH activity inhibition – cell lysate, 3D7 strain, counter-screen for P. falciparum growth inhibition project (AID 2304);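 note: 0% = vehicle and 100% = reference inhibitor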; settings: P. falciparum 3D7 crude extract, LDH APAD/NBT absorbance; at 2 µM; stronger effect = higher value
Sequence (Q27743 whole entry, looked up): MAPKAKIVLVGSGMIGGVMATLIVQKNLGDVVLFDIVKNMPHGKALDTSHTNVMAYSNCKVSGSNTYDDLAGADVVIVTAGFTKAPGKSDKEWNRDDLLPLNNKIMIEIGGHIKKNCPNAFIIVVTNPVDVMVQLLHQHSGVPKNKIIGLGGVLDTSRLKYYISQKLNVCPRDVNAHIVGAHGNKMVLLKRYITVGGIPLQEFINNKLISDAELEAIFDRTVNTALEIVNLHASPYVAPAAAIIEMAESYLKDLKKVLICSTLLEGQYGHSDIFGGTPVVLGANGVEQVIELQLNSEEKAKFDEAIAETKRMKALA
QUANTITY MEASURED: inhibition (%)
Only the number, expressed in %, is required.

Ask: Form field - read-out: inhibition; system: L-lactate dehydrogenase (Plasmodium falciparum (isolate CDC / Honduras)) (UniProt Q27743); submitted item: COc1ccc(CN2CCCN(Cc3cccc(NC(=O)c4cc5ccccc5s4)c3)CC2)cc1
Result: 5

Ask: Try this compound next: CC(C)(C)N1CCC(N(Cc2ccc(-c3ccc(C(F)(F)F)cc3)cc2)C(=O)Cn2c(CCc3cccc(F)c3F)cc(=O)c3cccnc32)CC1
Result: -1

Ask: Try this compound next: CC(CN(C)C)C(=O)Nc1cccc(-c2ccc(-c3nc4ccccc4[nH]3)s2)c1 (centres undefined)
Result: 7

Ask: Try this compound next: CN1CCC(C(=O)Nc2ccc(-c3cccc(-c4nc5ccc(F)cc5[nH]4)c3)cc2)CC1
Result: 5

Ask: Try this compound next: Cc1cc(Br)cnc1CCCCN=C1NC(=O)CN1C
Result: 2

Ask: Try this compound next: COc1ccc2nccc(N3CCC(O)(CCNCc4ccc5c(n4)NC(=O)CS5)CC3)c2n1
Result: 0

Ask: Try this compound next: CC(=O)Nc1nc(-c2ccccc2)[nH]c1C(N)=O
Result: 4

Ask: Try this compound next: CN(C)C(=O)c1ccc(CN(Cc2cccc(OC(C)(C)C)c2)Cc2ccc3c(c2)OCCO3)cc1
Result: -2

Ask: Try this compound next: COc1ccc2nccc([C@@H](O)CN3CCC(NCc4nc5c(F)cc(F)cc5[nH]4)CC3)c2c1
Result: 0

====

Field: inhibition. Provide a value for each of the molecules that follow.
target: L-lactate dehydrogenase (Plasmodium falciparum (isolate CDC / Honduras)) (UniProt Q27743); assay: PfLDH activity inhibition – cell lysate, 3D7 strain, counter-screen for P. falciparum growth inhibition project (AID 2304);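 note: 0% = vehicle and 100% = reference inhibitor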; conditions: P. falciparum 3D7 crude extract, LDH APAD/NBT absorbance; at 2 µM; stronger effect = higher value
The source made the active and inactive calls. No rule for the calls is given here.

Ask: Form field - read-out: inhibition; system: L-lactate dehydrogenase (Plasmodium falciparum (isolate CDC / Honduras)) (UniProt Q27743); submitted item: CCOc1cccc(C(=O)Nc2cccc(CN3CCCN(Cc4ccc(O)cc4)CC3)c2)c1
Result: 1% (inactive)

Ask: Try this molecule next: Cc1c(Cn2ncc(N3CCC(N)CC3)c(Cl)c2=O)cccc1NC(=O)Nc1ccc(-c2ccccc2)cc1
Result: -1% (inactive)

Ask: Try this molecule next: COc1c(CNCCCCCCNCc2cc(Cl)c3ccccc3c2OC)cc(Cl)c2ccccc12
Result: -4% (inactive)

Ask: Try this molecule next: C[C@@H](CC1CCCCC1)OC(=O)N[C@H]1CCN(C#N)C1
Result: 1% (inactive)

Ask: Try this molecule next: O=C(/C=C/c1ccc(Cl)c(Cl)c1)NCCCCCCN1CCCN(C(=O)Nc2cccc(Cl)c2)CC1
Result: 0% (inactive)

Ask: Try this molecule next: O=C(Nc1ccc(C(=O)Nc2ccc(C3=NCCN3)cc2)cc1)Nc1ccc(C2=NCCN2)cc1
Result: -7% (inactive)

Ask: Try this molecule next: O=S(=O)(NCCN1CCCC1)c1ccc(-c2ccc(CNC3Cc4ccccc4C3)cc2)s1
Result: -2% (inactive)

Ask: Try this molecule next: O=C(NCC1CCC(CNCCc2ccccc2)CC1)Nc1ccc(Cl)c(Cl)c1 (centres undefined)
Result: -1% (inactive)

Ask: Try this molecule next: O=C(NCC1CC1)C1CCN(C(c2ccc(Cl)cc2)c2ccc(Cl)cc2)CC1
Result: 1% (inactive)

====

molecular target: L-lactate dehydrogenase (Plasmodium falciparum (isolate CDC / Honduras)) (UniProt Q27743); assay: PfLDH activity inhibition – cell lysate, 3D7 strain, counter-screen for P. falciparum growth inhibition project (AID 2304);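 note: 0% = vehicle and 100% = reference inhibitor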; conditions: P. falciparum 3D7 crude extract, LDH APAD/NBT absorbance; at 2 µM; stronger effect = higher value
QUANTITY MEASURED: inhibition (%)
Only the number, expressed in %, is required.

Ask: Entry under review: COc1ccc(CNCc2cccc(-c3cccc(-c4nc5c(C)cccc5[nH]4)c3)c2)cc1 . Reported inhibition?
Result: -4

Ask: Try this molecule next: O=[N+]([O-])c1ccccc1C=NNc1ccnc2cc(Cl)ccc12
Result: 3

Ask: Try this molecule next: COc1cc2c(cc1OC)CC(NCCCCCCNCCc1ccc(Cl)cc1)CC2 (stereo not drawn)
Result: 1

Ask: Try this molecule next: COC(=O)c1ccc(C2OC3(C(=O)c4ccccc4C3=O)C(OC)=C2Cl)cc1C(C)=O (stereo not drawn)
Result: -2

Ask: Try this molecule next: CCCN(Cc1ccc(OCC)cc1)Cc1cc(=O)c2cc(Cl)ccc2[nH]1
Result: 1

Ask: Try this molecule next: Cc1cccc(CNc2nc(C)cc(N[C@@H](Cc3ccccc3)C(=O)NCc3cccc(F)c3)n2)c1
Result: -2

Ask: Try this molecule next: Cn1cnc(CCNC(=O)c2cccc(-c3cccc(-c4nc5ccc(C(F)(F)F)cc5[nH]4)c3)c2)c1
Result: 4

Ask: Try this molecule next: Cc1cc(NN=Cc2ccccc2Cl)c2cc(C(F)(F)F)ccc2n1
Result: -4

Ask: Try this molecule next: Cc1ccc(C)c(NC(=O)Nc2ccc(C)c(-c3ccc(C(=O)Nc4ccncc4)cc3)c2)c1
Result: -3

Ask: Try this molecule next: O=C(NCCCCCN1CCC(c2ccc(O)cc2)CC1)c1ccc(-c2ccccc2)cc1
Result: -1

Ask: Try this molecule next: C/C=C/C=C/C1=NCCc2cc(OCCC)ccc21
Result: -4

Ask: Try this molecule next: COc1ccc(CNC2CCN(C)CC2)cc1-c1ccc(S(=O)(=O)NCc2ccccc2)c(F)c1
Result: 4

Ask: Try this molecule next: CC(=O)Nc1cccc(C(=O)Nc2cccc(-c3ccc(-c4nc5ccc(C(F)(F)F)cc5[nH]4)s3)c2)c1
Result: -3

Ask: Try this molecule next: CC(Nc1ccc2c(c1)OCCO2)C(=O)Nc1cc(C(F)(F)F)ccc1N1CCOCC1 (stereo not drawn)
Result: 1

Ask: Try this molecule next: CC1CCN(CCCNc2ccc(C(=O)Nc3ccc(C(F)(F)F)cc3)cc2[N+](=O)[O-])CC1
Result: -3

Ask: Try this molecule next: CCc1ccc(C2CCN(CCCCNC(=O)c3ccc(-c4ccc(Cl)cc4)cc3)CC2)c(O)c1
Result: 2

Ask: Try this molecule next: CO/C(=C\C=C\c1cc2cc(Cl)c(Cl)cc2[nH]1)C(=O)NCCCN1CCN(Cc2ccccc2)CC1
Result: -2

Ask: Try this molecule next: COc1ccc(CCN2CCC(NCc3cccc(N(C)C)c3)CC2)cc1
Result: 2

Ask: Try this molecule next: CCOc1cc(-c2nnc3[nH]c(=O)n(C)c(=O)c3n2)ccc1OC(C)C
Result: 1

Ask: Try this molecule next: COc1ccc(NC(=O)CCNc2cc(C)nc(NCc3cccc(C)c3)n2)cc1
Result: 1

Ask: Try this molecule next: CC(C)(C)c1ccc(NC(=O)c2cccc(CN3CCCN(CC4CCCCC4)CC3)c2)cc1
Result: 1

Ask: Try this molecule next: O=C(/C=C/c1ccc([N+](=O)[O-])cc1)N1CCC(NS(=O)(=O)c2ccc(F)cc2)CC1
Result: -10

Ask: Try this molecule next: Cc1ccc(F)c(OCC2CCN(c3ccc(C(=O)NC4CC4)cn3)CC2)c1
Result: 2

Ask: Try this molecule next: COc1cccc(C(C)(C)NC[C@@H](O)[C@H](Cc2ccccc2)NC(=O)c2cc(C3CCCC3)cc(N3CCCCS3(=O)=O)c2F)c1
Result: 7

Ask: Try this molecule next: COc1ccccc1C1CC(c2ccccc2)=NN1C(=O)c1ccco1 (stereo not drawn)
Result: -2

Ask: Try this molecule next: CN1CCN(Cc2cc3cc(NC(=O)/C=C/c4ccc(Cl)cc4)ccc3s2)CC1
Result: 2

Ask: Try this molecule next: COc1ccc(-c2ccc(NC(=O)c3ccc(C#N)cc3)cc2)cc1CN1CCN(C)CC1
Result: 1

Ask: Try this molecule next: Cc1cccc(C(=O)N2CCN(Cc3cccc(NC(=O)c4ccco4)c3)CC2)c1
Result: 1

Ask: Try this molecule next: Cc1ccc(Nc2ccnc(Nc3ccc(C)c(F)c3)n2)cc1O
Result: -4

Ask: Try this molecule next: CCCCCCNCCOc1ccc(-c2nc(-c3ccccc3)c(-c3ccccc3)[nH]2)cc1
Result: -4

Ask: Try this molecule next: CN(C)CCOc1ccc(-c2cc(-c3ccncc3)c(-c3ccc(Cl)c(O)c3)[nH]2)cc1
Result: -2

Ask: Try this molecule next: COc1ccc2nccc([C@@H](O)CN3CCC(NCc4[nH]c5ccccc5c4F)CC3)c2c1
Result: 3

Ask: Try this molecule next: N#Cc1ccc(-c2ccc(C(=O)NCCCCN3CCC(c4nc5ccccc5[nH]4)CC3)cc2)cc1
Result: 4

Ask: Try this molecule next: Cc1cccc(C(O)CNc2ccnc(Nc3cccc(-c4csc(C)n4)c3)n2)c1 (stereo not drawn)
Result: 2

Ask: Try this molecule next: CCOC(=O)CC[C@H](NC(=O)c1ccc(NS(=O)(=O)c2ccc(-c3cnc(N)[nH]c3=O)cc2)cc1)C(=O)OCC
Result: 4

Ask: Try this molecule next: C=CCc1c(C(=O)NCC23CC4CC(CC(C4)C2)C3)[nH]c2ccccc2c1=O
Result: 2

Ask: Try this molecule next: COc1ccc2[nH]c(C(=O)Nc3cccc(-c4ccc(CN(C)C)cc4)c3)cc2c1
Result: 3

Ask: Try this molecule next: COc1cc2c(c(Cl)c1OC)CCN(Cc1ccccc1)CC2c1ccc(C(N)=O)cc1 (stereo not drawn)
Result: -5

Source of measurements: PubChem BioAssay
